Each entry below carries its reported target mRNA knockdown.
settings: siRNA; further: test system not given here
HELM strings list units from the 5' end as sugar, base in round brackets, then linkage (d deoxyribose, r ribose, m 2'-O-methyl, p phosphodiester). Strings are as the collection lists them, not checked against the first reports. ss, as = sense and antisense strand; [hna] = hexitol nucleic acid; [fl2r] = 2'-fluoro
recorded.metric: target mRNA knockdown

* RNA1{[fl2r](A)p.r(A)p.[fl2r](G)p.r(G)p.[fl2r](A)p.r(C)p.[fl2r](C)p.r(U)p.[fl2r](A)p.r(G)p.[fl2r](A)p.r(G)p.[fl2r](G)p.r(A)p.[fl2r](G)p.r(U)p.[fl2r](C)p.r(A)p.r(C)p.r(T)p.r(T)}|RNA2{r(G)p.r(U)p.r(G)p.r(A)p.r(C)p.r(U)p.r(C)p.r(C)p.r(U)p.r(C)p.r(U)p.r(A)p.r(G)p.r(G)p.r(U)p.r(C)p.r(C)p.r(U)p.r(U)p.r(T)p.r(T)}$$$RNA1{StrandType:ss}|RNA2{StrandType:as}$ | 31%
* RNA1{r(G)p.r(A)p.r(C)p.r(G)p.[hna](U)p.r(A)p.r(A)p.[hna](A)p.r(C)p.r(G)p.[hna](G)p.r(C)p.r(C)p.[hna](A)p.r(C)p.r(A)p.r(A)p.r(G)p.[hna](U)p.[hna](U)p.d(T)}|RNA2{r(A)p.m(C)p.r(U)p.r(U)p.r(G)p.r(U)p.r(G)p.r(G)p.r(C)p.r(C)p.r(G)p.r(U)p.r(U)p.r(U)p.r(A)p.r(C)p.r(G)p.r(U)p.r(C)p.r(G)p.r(C)}$$$RNA1{StrandType:ss}|RNA2{StrandType:as}$ | 44.7%

###

details: siRNA
HELM strings list units from the 5' end as sugar, base in round brackets, then linkage (d deoxyribose, r ribose, m 2'-O-methyl, p phosphodiester). Strings are as the collection lists them, not checked against the first reports. ss, as = sense and antisense strand; [lna] = locked nucleic acid (LNA); [hna] = hexitol nucleic acid
Each entry below carries its reported target mRNA knockdown.
recorded.metric: target mRNA knockdown (%)

* RNA1{r(A)p.r(G)p.r(A)p.r(A)p.r(G)p.m(U)p.r(A)p.r(C)p.r(C)p.r(A)p.r(G)p.r(G)p.r(A)p.r(G)p.r(G)p.r(C)p.r(G)p.r(U)p.r(U)p.r(T)p.r(T)}|RNA2{r(A)p.r(A)p.r(C)p.r(G)p.r(C)p.r(C)p.r(U)p.r(C)p.r(C)p.r(U)p.r(G)p.r(G)p.m(U)p.r(A)p.r(C)p.r(U)p.r(U)p.r(C)p.r(U)p.r(T)p.r(T)}$$$RNA1{StrandType:ss}|RNA2{StrandType:as}$ | 69
* RNA1{r(G)p.r(A)p.r(C)p.r(G)p.[hna](U)p.r(A)p.r(A)p.[hna](A)p.r(C)p.r(G)p.[hna](G)p.r(C)p.r(C)p.[hna](A)p.r(C)p.r(A)p.r(A)p.r(G)p.[hna](U)p.r(U)p.d(T)}|RNA2{r(A)p.[hna](C)p.r(U)p.r(U)p.r(G)p.r(U)p.r(G)p.r(G)p.[hna](C)p.r(C)p.r(G)p.r(U)p.r(U)p.r(U)p.r(A)p.r(C)p.r(G)p.[hna](U)p.[hna](C)p.[hna](G)p.d(T)}$$$RNA1{StrandType:ss}|RNA2{StrandType:as}$ | 0
* RNA1{r(A)p.r(U)p.m(C)p.r(A)p.m(C)p.r(A)p.r(A)p.r(A)p.r(C)p.r(C)p.r(C)p.r(C)p.m(U)p.r(A)p.r(G)p.r(A)p.r(G)p.r(G)p.r(G)p.r(T)p.r(T)}|RNA2{r(C)p.r(C)p.r(C)p.r(U)p.r(C)p.m(U)p.r(A)p.m(G)p.r(G)p.r(G)p.r(G)p.r(U)p.r(U)p.r(U)p.r(G)p.m(U)p.r(G)p.r(A)p.r(U)p.r(T)p.r(T)}$$$RNA1{StrandType:ss}|RNA2{StrandType:as}$ | 27
* RNA1{r(A)p.r(A)p.r(A)p.r(C)p.r(C)p.r(U)p.m(C)p.r(A)p.r(G)p.r(C)p.r(C)p.r(C)p.m(U)p.r(A)p.r(A)p.r(C)p.r(G)p.r(G)p.r(U)p.r(T)p.r(T)}|RNA2{r(A)p.r(C)p.r(C)p.r(G)p.r(U)p.m(U)p.r(A)p.r(G)p.r(G)p.r(G)p.r(C)p.m(U)p.r(G)p.r(A)p.r(G)p.r(G)p.r(U)p.r(U)p.r(U)p.r(T)p.r(T)}$$$RNA1{StrandType:ss}|RNA2{StrandType:as}$ | 70
* RNA1{r(C)p.r(U)p.r(U)p.r(A)p.r(C)p.r(G)p.r(C)p.r(U)p.r(G)p.r(A)p.r(G)p.r(U)p.r(A)p.r(C)p.r(U)p.r(U)p.r(C)p.r(G)p.r(A)p.r(T)p.r(T)}|RNA2{[lna](T)p.r(C)p.r(G)p.r(A)p.r(A)p.r(G)p.[lna](T)p.r(A)p.r(C)p.[lna](T)p.r(C)p.r(A)p.r(G)p.r(C)p.r(G)p.[lna](T)p.r(A)p.r(A)p.r(G)p.[lna](T)p.[lna](T)}$$$RNA1{StrandType:ss}|RNA2{StrandType:as}$ | 19
